# subjectOfTest: EGFR (Homo sapiens)
# Construct: Kinases are expressed as either kinase domains or full length constructs; made in house
# Sequence (P00533 25-1210, species assumed): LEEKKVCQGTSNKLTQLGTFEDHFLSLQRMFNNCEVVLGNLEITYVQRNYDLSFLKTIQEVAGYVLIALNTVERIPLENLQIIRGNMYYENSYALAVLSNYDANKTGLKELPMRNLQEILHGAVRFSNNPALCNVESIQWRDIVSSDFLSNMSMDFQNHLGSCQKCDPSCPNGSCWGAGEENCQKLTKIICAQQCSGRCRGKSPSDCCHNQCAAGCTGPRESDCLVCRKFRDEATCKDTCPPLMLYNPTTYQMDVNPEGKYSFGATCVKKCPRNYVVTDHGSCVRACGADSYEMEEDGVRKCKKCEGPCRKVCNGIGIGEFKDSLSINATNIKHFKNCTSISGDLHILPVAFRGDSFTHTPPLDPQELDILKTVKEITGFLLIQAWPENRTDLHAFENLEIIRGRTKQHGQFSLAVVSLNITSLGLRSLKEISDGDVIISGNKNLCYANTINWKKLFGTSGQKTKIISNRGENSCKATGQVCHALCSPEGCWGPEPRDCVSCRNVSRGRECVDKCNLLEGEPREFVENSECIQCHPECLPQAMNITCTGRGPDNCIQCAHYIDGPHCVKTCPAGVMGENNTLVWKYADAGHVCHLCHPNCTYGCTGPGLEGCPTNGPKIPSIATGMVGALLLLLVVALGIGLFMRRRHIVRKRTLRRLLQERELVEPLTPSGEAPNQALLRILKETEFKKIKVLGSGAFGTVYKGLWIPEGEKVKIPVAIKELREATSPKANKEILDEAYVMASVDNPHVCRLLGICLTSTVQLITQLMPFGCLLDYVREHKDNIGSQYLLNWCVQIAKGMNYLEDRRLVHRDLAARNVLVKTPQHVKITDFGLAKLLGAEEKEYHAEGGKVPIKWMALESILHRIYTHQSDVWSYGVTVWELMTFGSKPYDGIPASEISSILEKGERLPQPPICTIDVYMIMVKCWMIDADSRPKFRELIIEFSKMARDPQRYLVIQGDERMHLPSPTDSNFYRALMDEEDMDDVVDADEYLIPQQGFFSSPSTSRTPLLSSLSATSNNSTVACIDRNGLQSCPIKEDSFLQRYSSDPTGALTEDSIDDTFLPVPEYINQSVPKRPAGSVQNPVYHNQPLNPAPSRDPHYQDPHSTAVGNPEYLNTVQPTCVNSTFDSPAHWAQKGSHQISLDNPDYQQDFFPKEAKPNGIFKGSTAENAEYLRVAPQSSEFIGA
# assayProtocol: Kinase inhibition assay (33P transfer), EGFR
# Format: biochemical
# conditionSet: Table 2, kinase inhibition class; read-out: EGFR-1
observable: IC50

Which IC50 is reported for this compound? "O=c1[nH]c2ccccc2n1-c1ncnc(Nc2cccc3cccnc23)n1"
> 12.7 µM

Quick one: "COc1cc(Nc2ncnc(Nc3ccc(C(C)C)cc3)n2)cc(OC)c1OC"
> 11.4 µM

Quick one: "COc1cc(Nc2ncnc(N(CC(=O)OC(C)(C)C)c3ccc(Cl)cc3)n2)cc(OC)c1OC"
0.797 to 4.78 µM

Quick one: "COc1cc(Nc2ncnc(Nc3ccc(NC(=O)O[C@@H]4CCOC4)cc3)n2)cc(OC)c1OC"
0.829 to 4.97 µM

Quick one: "Fc1ccc(Nc2ncnc(Nc3ccc4[nH]ncc4c3)n2)cc1Cl"
< 1.12 µM

Quick one: "Cc1ccc(Nc2ncnc(-n3cccc3)n2)cc1Cl"
> 15.7 µM

Quick one: "COc1cc(Nc2ncnc(-n3c(Nc4cccc(C(=O)O)c4)nc4ccccc43)n2)cc(OC)c1OC"
6.82 to 8.76 µM

Quick one: "FC(F)C(F)(F)Oc1cccc(Nc2ncnc(-c3cccs3)n2)c1"
> 12.2 µM
